System: HIV-1ERS104pre
Assay: p24 Gag production inhibition in PHA-PBMs, wild-type clinical isolate
Assay type: cell-based
Run Conditions: Human immunodeficiency virus 1; PHA-PBMs, p24 Gag endpoint; read-out: EC50 HIV-1ERS104pre (X4)
Reported pEC50 values are given for each entry in this list.
Scale note: pEC50 = -log10(concentration in M).

Sample answers from the record:
• COc1ccc(S(=O)(=O)N(CC(C)C)C[C@@H](O)[C@H](Cc2ccccc2)NC(=O)OC2CO[C@H]3OCC(F)(F)[C@@H]23)cc1 (stereo partly shown) [GRL-04810] = 8.64
• CC(C)CN(C[C@@H](O)[C@H](Cc1ccccc1)NC(=O)O[C@H]1CO[C@H]2OCC(F)(F)[C@H]21)S(=O)(=O)c1ccc(N)cc1 [GRL-05010] = 8.57
• CC(C)CN(C[C@@H](O)[C@H](Cc1ccccc1)NC(=O)O[C@H]1CCOC1)S(=O)(=O)c1ccc(N)cc1 [APV, Amprenavir] = 7.53

Q. Return reported pEC50; argument: Cc1cccc(C)c1OCC(=O)N[C@@H](Cc1ccccc1)[C@@H](O)C[C@H](Cc1ccccc1)NC(=O)[C@H](C(C)C)N1CCCNC1=O [LPV, Lopinavir]
A. 7.48

* * *

Tested on: HIV-1LAI
Assay: Drug susceptibility MTT assay, MT-2 cells exposed to HIV-1LAI
Assay type: cell-based
Run Conditions: Human immunodeficiency virus 1, MT2, MT-2 cells, 100 TCID50, MTT assay; read-out: EC50 HIV-1LAI
Reported Metric: EC50 (nM)
Give the value in nM but do not write nM after it.

• COc1ccc(S(=O)(=O)N(CC(C)C)C[C@@H](O)[C@H](Cc2ccccc2)NC(=O)OC2CO[C@H]3OCC(F)(F)[C@@H]23)cc1 (some centres unmarked) = 0.8

Q. Look up EC50 for this compound: CC(C)CN(C[C@@H](O)[C@H](Cc1ccccc1)NC(=O)O[C@H]1CO[C@H]2OCC(F)(F)[C@H]21)S(=O)(=O)c1ccc(N)cc1
A. 3

* * *

fold change of EC50 HIV-1MDR/TM vs HIV-1ERS104pre values by entry
System: HIV-1MDR/TM
Assay: microbe, parasite or virus in culture
Type: cell-based
Run Conditions: number in parentheses
Provide only the numeric value, understood in fold.

* CC(C)(C)NC(=O)[C@@H]1C[C@@H]2CCCC[C@@H]2CN1C[C@@H](O)[C@H](Cc1ccccc1)NC(=O)[C@H](CC(N)=O)NC(=O)c1ccc2ccccc2n1 | 25
* COc1ccc(S(=O)(=O)N(CC(C)C)C[C@@H](O)[C@H](Cc2ccccc2)NC(=O)OC2CO[C@H]3OCC(F)(F)[C@@H]23)cc1 (stereo partly shown) | 2
* COC(=O)N[C@H](C(=O)N[C@@H](Cc1ccccc1)[C@@H](O)CN(Cc1ccc(-c2ccccn2)cc1)NC(=O)[C@@H](NC(=O)OC)C(C)(C)C)C(C)(C)C | 24

Please look at the following molecule next.
Q. What fold change of EC50 HIV-1MDR/TM vs HIV-1ERS104pre value was documented for this molecule, CC(C)CN(C[C@@H](O)[C@H](Cc1ccccc1)NC(=O)O[C@H]1CO[C@H]2OCC(F)(F)[C@H]21)S(=O)(=O)c1ccc(N)cc1 ?
A. 2

* * *

System: MT-2 cells
Assay: Cytotoxicity (CC50), MTT assay
Assay type: cell-based
Run Conditions: human, 7 days
Reported Metric: CC50 (µM)
Kindly answer with a numeric value in µM, unit omitted.

Q. Returns the measured CC50 for the input molecule. Input: CC(C)CN(C[C@@H](O)[C@H](Cc1ccccc1)NC(=O)O[C@H]1CO[C@H]2OCC(F)(F)[C@H]21)S(=O)(=O)c1ccc(N)cc1
A. 37

* * *

System: HIV-1APV^R5μM
Assay: microbe, parasite or virus in culture
Assay type: cell-based
Run Conditions: Human immunodeficiency virus 1, MT4, read-out: EC50 HIV-1APV^R5μM
Reported Metric: EC50 (nM)
Kindly provide the numeric value in nM only, without the unit symbol.

- CC(C)CN(C[C@@H](O)[C@H](Cc1ccccc1)NC(=O)O[C@H]1CO[C@H]2OCC(F)(F)[C@H]21)S(=O)(=O)c1ccc(N)cc1 [GRL-05010]: 560

Q. // query EC50 value for entry CC(C)CN(C[C@@H](O)[C@H](Cc1ccccc1)NC(=O)O[C@H]1CO[C@H]2OCC[C@H]21)S(=O)(=O)c1ccc(N)cc1 [DRV, darunavir]
A. 510

Q. I would be grateful if you could share the reported EC50 for COc1ccc(S(=O)(=O)N(CC(C)C)C[C@@H](O)[C@H](Cc2ccccc2)NC(=O)OC2CO[C@H]3OCC(F)(F)[C@@H]23)cc1 (stereo partly drawn) [GRL-04810] .
A. 430

Q. Using the record for COC(=O)N[C@H](C(=O)N[C@@H](Cc1ccccc1)[C@@H](O)CN(Cc1ccc(-c2ccccn2)cc1)NC(=O)[C@@H](NC(=O)OC)C(C)(C)C)C(C)(C)C [ATV, Atazanavir] , report its EC50.
A. 660

Q. Data request, read-out EC50, for CC(C)(C)NC(=O)[C@@H]1C[C@@H]2CCCC[C@@H]2CN1C[C@@H](O)[C@H](Cc1ccccc1)NC(=O)[C@H](CC(N)=O)NC(=O)c1ccc2ccccc2n1 [SQV, Saquinavir]
A. 90

* * *

Parameter pEC50: see the listing below.
System: HIV-1MDR/B
Assay: microbe, parasite or virus in culture
Assay type: cell-based
Run Conditions: Human immunodeficiency virus 1, read-out: EC50 HIV-1MDR/B (X4)
Please treat pEC50 as minus the base-10 logarithm of the molar concentration.

Examples with answers:
• CC(C)CN(C[C@@H](O)[C@H](Cc1ccccc1)NC(=O)O[C@H]1CO[C@H]2OCC(F)(F)[C@H]21)S(=O)(=O)c1ccc(N)cc1 [GRL-05010] = 7.96
• COc1ccc(S(=O)(=O)N(CC(C)C)C[C@@H](O)[C@H](Cc2ccccc2)NC(=O)OC2CO[C@H]3OCC(F)(F)[C@@H]23)cc1 (some centres unmarked) [GRL-04810] = 7.85
• CC(C)CN(C[C@@H](O)[C@H](Cc1ccccc1)NC(=O)O[C@H]1CCOC1)S(=O)(=O)c1ccc(N)cc1 [APV, Amprenavir] = 6.31
• COC(=O)N[C@H](C(=O)N[C@@H](Cc1ccccc1)[C@@H](O)CN(Cc1ccc(-c2ccccn2)cc1)NC(=O)[C@@H](NC(=O)OC)C(C)(C)C)C(C)(C)C [ATV, Atazanavir] = 6.35

Next up:
Q. Consider the compound CC(C)(C)NC(=O)[C@@H]1C[C@@H]2CCCC[C@@H]2CN1C[C@@H](O)[C@H](Cc1ccccc1)NC(=O)[C@H](CC(N)=O)NC(=O)c1ccc2ccccc2n1 [SQV, Saquinavir] and give its measured pEC50.
A. 6.46

* * *

Assay: in vitro
Run Conditions: rat and monkey, Papp
Papp at 30 min, 100 μM reference
Kindly answer with a numeric value in ×10⁻⁶ cm/s, unit omitted.

# example entries with known answers
* COC(=O)N[C@H](C(=O)N[C@@H](Cc1ccccc1)[C@@H](O)CN(Cc1ccc(-c2ccccn2)cc1)NC(=O)[C@@H](NC(=O)OC)C(C)(C)C)C(C)(C)C | 15.4
* CC(C)(C)NC(=O)[C@@H]1C[C@@H]2CCCC[C@@H]2CN1C[C@@H](O)[C@H](Cc1ccccc1)NC(=O)[C@H](CC(N)=O)NC(=O)c1ccc2ccccc2n1 | 4.9
* COc1ccc(S(=O)(=O)N(CC(C)C)C[C@@H](O)[C@H](Cc2ccccc2)NC(=O)OC2CO[C@H]3OCC(F)(F)[C@@H]23)cc1 (stereo partly shown) | 47.8

Q. Fill blank: measured Papp at 30 min, 100 μM of the molecule CC(C)CN(C[C@@H](O)[C@H](Cc1ccccc1)NC(=O)O[C@H]1CO[C@H]2OCC(F)(F)[C@H]21)S(=O)(=O)c1ccc(N)cc1 is ____.
A. 61.8

* * *

Each entry below carries its recorded fold change of EC50 HIV-1MDR/MM vs HIV-1ERS104pre.
System: HIV-1MDR/MM
Assay: microbe, parasite or virus in culture
Assay type: cell-based
Run Conditions: number in parentheses
Kindly answer with a numeric value in fold, unit omitted.

Examples from the recorded data:
• CC(C)CN(C[C@@H](O)[C@H](Cc1ccccc1)NC(=O)O[C@H]1CO[C@H]2OCC(F)(F)[C@H]21)S(=O)(=O)c1ccc(N)cc1 = 1
• COc1ccc(S(=O)(=O)N(CC(C)C)C[C@@H](O)[C@H](Cc2ccccc2)NC(=O)OC2CO[C@H]3OCC(F)(F)[C@@H]23)cc1 (stereo partly shown) = 1
• CC(C)(C)NC(=O)[C@@H]1C[C@@H]2CCCC[C@@H]2CN1C[C@@H](O)[C@H](Cc1ccccc1)NC(=O)[C@H](CC(N)=O)NC(=O)c1ccc2ccccc2n1 = 27

In the following, a different molecule is considered.
Q. Look up fold change of EC50 HIV-1MDR/MM vs HIV-1ERS104pre for this molecule: COC(=O)N[C@H](C(=O)N[C@@H](Cc1ccccc1)[C@@H](O)CN(Cc1ccc(-c2ccccn2)cc1)NC(=O)[C@@H](NC(=O)OC)C(C)(C)C)C(C)(C)C
A. 38
